Reference source for all entries: ChEMBL document CHEMBL4422644

System: Mycobacterium tuberculosis
Assay: Antitubercular activity against multidrug-resistant Mycobacterium tuberculosis isolate 3 after 7 days
Type: functional
Conditions: isolate 3, 168 h
Assign MIC to each entry below.
Reply numerically in µg/mL, unit not repeated.

Which value of MIC has been reported for Cc1nc(C)c(C(=O)N(c2cccc(C)c2C)C(C(=O)NC2CCCCC2)c2cccnc2)s1 (stereo not given) in the records? 1

Another compound to look at: `NC[C@H]1O[C@H](O[C@H]2[C@H](O)[C@@H](O[C@H]3O[C@H](CO)[C@@H](O)[C@H](N)[C@H]3O)[C@H](N)C[C@@H]2N)[C@H](O)[C@@H](O)[C@@H]1O` 32

Another compound to look at: `CC[C@@H](CO)NCCN[C@@H](CC)CO` 4

Another compound to look at: `CO[C@H]1/C=C/O[C@@]2(C)Oc3c(C)c(O)c4c(O)c(c(/C=N/N5CCN(C)CC5)c(O)c4c3C2=O)NC(=O)/C(C)=C\C=C\[C@H](C)[C@H](O)[C@@H](C)[C@@H](O)[C@@H](C)[C@H](OC(C)=O)[C@@H]1C` 64
